System: DLD-1
Experiment: Inhibition of 20S proteasome in human DLD1 cells transfected with 4Ub-Luc gene assessed as bioluminescence induction factor at 0.5 uM after 8 hrs by luciferase reporter gene assay relative to epoxomicin
Format: cell-based
measuredEndpoint: fold change (FC)

Known results for compounds:
{"smi": "C=C(C(=O)[C@H](OC(=O)CNC(=O)OC(C)(C)C)[C@@H](C)[C@H]1[C@@H](OC(C)=O)C[C@@]2(C)[C@@H]3CC[C@H]4[C@H](C)C(=O)C=C[C@@]45C[C@@]35CC[C@]12C)[C@@H](C)COC(=O)CNC(=O)OC(C)(C)C", "measuredEndpoint": "fold change (FC)", "val": 4.3}
{"smi": "C=C(C(=O)[C@H](OC(C)=O)[C@@H](C)[C@H]1[C@@H](OC(C)=O)C[C@@]2(C)[C@@H]3CC[C@H]4[C@H](C)C(=O)C=C[C@@]45C[C@@]35CC[C@]12C)[C@@H](C)COC(=O)Nc1ccccc1", "measuredEndpoint": "fold change (FC)", "val": 6.4}
{"smi": "C=C(C(=O)[C@H](OC(C)=O)[C@@H](C)[C@H]1[C@@H](OC(C)=O)C[C@@]2(C)[C@@H]3CC[C@H]4[C@H](C)/C(=N/O)C=C[C@@]45C[C@@]35CC[C@]12C)[C@@H](C)CO", "measuredEndpoint": "fold change (FC)", "val": 1}

Form: compound = C=C(C(=O)[C@H](OC(C)=O)[C@@H](C)[C@H]1[C@@H](OC(C)=O)C[C@@]2(C)[C@@H]3CC[C@H]4[C@H](C)C(=O)C=C[C@@]45C[C@@]35CC[C@]12C)[C@@H](C)COC(=O)N1CCN(C)CC1 ; fold change (FC) = 8

Form: compound = C=C(C(=O)[C@H](O)[C@@H](C)[C@H]1[C@@H](OC(C)=O)C[C@@]2(C)[C@@H]3CC[C@H]4[C@H](C)C(=O)C=C[C@@]45C[C@@]35CC[C@]12C)[C@@H](C)COC(C)=O ; fold change (FC) = 1.7

Form: compound = C=C(C(=O)[C@H](OC(=O)CNC(=O)OC(C)(C)C)[C@@H](C)[C@H]1[C@@H](OC(C)=O)C[C@@]2(C)[C@@H]3CC[C@H]4[C@H](C)C(=O)C=C[C@@]45C[C@@]35CC[C@]12C)[C@@H](C)COC(C)=O ; fold change (FC) = 76

Form: compound = C=C(C(=O)[C@H](OC(=O)CNC(=O)OC(C)(C)C)[C@@H](C)[C@H]1[C@@H](OC(C)=O)C[C@@]2(C)[C@@H]3CC[C@H]4[C@H](C)C(=O)C=C[C@@]45C[C@@]35CC[C@]12C)[C@@H](C)CO ; fold change (FC) = 2

Form: compound = C=C(C(=O)[C@H](O)[C@@H](C)[C@H]1[C@@H](OC(C)=O)C[C@@]2(C)[C@@H]3CC[C@H]4[C@H](C)C(=O)C=C[C@@]45C[C@@]35CC[C@]12C)[C@@H](C)COC(=O)CN(C)C ; fold change (FC) = 1.3

Form: compound = C=CC(=O)OC[C@H](C)C(=C)C(=O)[C@H](OC(C)=O)[C@@H](C)[C@H]1[C@@H](OC(C)=O)C[C@@]2(C)[C@@H]3CC[C@H]4[C@H](C)C(=O)C=C[C@@]45C[C@@]35CC[C@]12C ; fold change (FC) = 1.4
